EXPERIMENTAL_PROTOCOL: collision cross section (TIMS, N2 drift gas) of the primary ion; higher = larger gas-phase ion size
COND: ionization mode: ESI-; ion species: [M-H]-
TEST_READOUT: collision cross section (Å²)

[A] Cc1ccc(S(=O)(=O)O)c(C)c1
[B] CCCCC(CC)COC(=O)CC(C(=O)OCC(CC)CCCC)S(=O)(=O)O (centres undefined) [Dioctylsulfosuccinate]
Record comparison, field collision cross section: mark the lower of A and B . API: response body contains the label of the selected item.
A
(A: 136.84 Å², B: 208.23 Å²)

====

EXPERIMENTAL_PROTOCOL: reversed-phase LC retention time (C18, 15 min MeOH gradient); higher = more hydrophobic / later elution
COND: ionization mode: ESI+; ion species: [M+H]+
TEST_READOUT: reversed-phase LC retention time (min)

Cc1cnc2ccc3c(nc(N)n3C)c2n1 [2-Amino-3,8-dimethylimidazo-[4,5-f]quinoxaline (MeIQx)] = 7.67
CCCC1COC(Cn2cncn2)(c2ccc(Cl)cc2Cl)O1 (configuration not stated) [Propiconazole] = 15.7

[I] CN1C(=O)CC[C@H]1c1cccnc1 [Cotinine]
[II] CCCc1nc2c(C)cc(-c3nc4ccccc4n3C)cc2n1Cc1ccc(-c2ccccc2C(=O)O)cc1 [Telmisartan]
[III] Cc1c(C=O)c(=O)n(-c2ccccc2)n1C [4-Formyl-antipyrine]
// smallest reversed-phase LC retention time at index 0, largest at the end Answer format: list of labels, ordered as asked.
I, III, II

[A] CN(C)CCOC(c1ccccc1)c1ccccc1 [Diphenhydramine]
[B] CCN1CCCC1=O [1-Ethyl-2-pyrrolidinone]
Consider A and B . Which of these has its reversed-phase LC retention time at a higher number? API: response body contains the label of the selected item.
A
(A: 11.6 min, B: 6.97 min)

[1] CCOC(=O)[C@H](CCc1ccccc1)N[C@@H](C)C(=O)N1CCC[C@H]1C(=O)O [Enalapril]
[2] CCCCC(CC)COC(=O)c1ccc(N(C)C)cc1 (configuration not stated)
Record comparison, field reversed-phase LC retention time: mark the lower of 1 and 2 . API: response body contains the label of the selected item.
1
(1: 11.6 min, 2: 17.9 min)

[a] C[C@@H](O)CCCCn1c(=O)c2c(ncn2C)n(C)c1=O [Lisofylline]
[b] Cc1ccc(-c2cc(C(F)(F)F)nn2-c2ccc(S(N)(=O)=O)cc2)cc1 [Celecoxib]
Record comparison, field reversed-phase LC retention time: mark the lower of a and b . API: response body contains the label of the selected item.
a

[P] CC(C)c1c(C(=O)Nc2ccccc2)c(-c2ccccc2)c(-c2ccc(F)cc2)n1CCC(O)CC(O)CC(=O)O (configuration not stated) [Atorvastatin]
[Q] Cc1cc(=O)n(-c2ccccc2)n1C [Phenazone]
Consider P and Q . Which of these has its reversed-phase LC retention time at a higher number? API: response body contains the label of the selected item.
P

====

EXPERIMENTAL_PROTOCOL: reversed-phase LC retention time (C18, 15 min MeOH gradient); higher = more hydrophobic / later elution
COND: ionization mode: ESI+; ion species: [M+H]+
TEST_READOUT: reversed-phase LC retention time (min)

[P] CO/N=C(/C(=O)O)c1ccccc1CO/N=C(\C(=O)O)c1cccc(C(F)(F)F)c1
[Q] Cc1c(N(C)C)c(=O)n(-c2ccccc2)n1C [Dimethylaminophenazone]
Record comparison, field reversed-phase LC retention time: mark the lower of P and Q . API: response body contains the label of the selected item.
Q
(Q: 6.95 min, P: 13.6 min)

====

EXPERIMENTAL_PROTOCOL: reversed-phase LC retention time (C18, 15 min MeOH gradient); higher = more hydrophobic / later elution
COND: ionization mode: ESI-; ion species: [M-H]-
TEST_READOUT: reversed-phase LC retention time (min)

Cc1nc(=O)c(-c2ccccc2)n[nH]1 = 6.92
Cc1ccc(S(=O)(=O)O)c(C)c1 = 7.68
O=C(Nc1ccc(F)cc1)c1cccc(Oc2cccc(C(F)(F)F)c2)n1 = 17.2
CCc1ccc(CCOc2ccc(CC3SC(=O)NC3=O)cc2)nc1 (stereo not drawn) = 13.3
CC(C)(C)c1cc(CCC(=O)NCCCCCCNC(=O)CCc2cc(C(C)(C)C)c(O)c(C(C)(C)C)c2)cc(C(C)(C)C)c1O = 18.3
CNC(=O)c1cc(Oc2ccc(NC(=O)Nc3ccc(Cl)c(C(F)(F)F)c3)cc2)ccn1 = 16.2
O=C(O)CCCCCCCCCCC(=O)O = 8.22
O=C(O)C(F)(F)C(F)(F)C(F)(F)C(F)(F)C(F)(F)C(F)(F)C(=O)O = 6.68

[P] CCCCc1ncc(C(=O)O)n1Cc1ccc(C(=O)O)cc1
[Q] Oc1cc(-c2ccc(Cl)cc2)ccc1Cl [3-Hydroxy-4,4'-dichlorobiphenyl]
[R] COCC(C)N(C(=O)C(=O)O)c1c(C)csc1C (stereo not drawn)
// smallest reversed-phase LC retention time at index 0, largest at the end Answer format: list of labels, ordered as asked.
P, R, Q
(P: 7.27 min, R: 10.5 min, Q: 16.1 min)

[P] C[C@H]1C[C@H]2[C@@H]3CCC4=CC(=O)C=C[C@]4(C)[C@@]3(F)[C@@H](O)C[C@]2(C)[C@@]1(O)C(=O)CCl
[Q] Cc1cccc(C)c1N(Cn1cccn1)C(=O)CS(=O)CC(=O)O (stereo not drawn)
Consider P and Q . Which of these has its reversed-phase LC retention time at a higher number? API: response body contains the label of the selected item.
P
(P: 14.4 min, Q: 8.94 min)

[A] CCCC1CC(C(=O)NC(C(C)Cl)C2OC(SC)C(O)C(O)C2O)N(C)C1 (stereo not drawn)
[B] CC1OC(OCC2OC(Oc3c(-c4ccc(O)c(O)c4)oc4cc(O)cc(O)c4c3=O)C(O)C(O)C2O)C(O)C(O)C1O (stereo not drawn)
Record comparison, field reversed-phase LC retention time: mark the lower of A and B . API: response body contains the label of the selected item.
B

[A] CC(C)(O)c1ccccc1CCC(SCC1(CC(=O)O)CC1)c1cccc(C=Cc2ccc3ccc(Cl)cc3n2)c1 (stereo not drawn)
[B] CN=C(NC#N)NCCSCc1nc[nH]c1C
Consider A and B . Which of these has its reversed-phase LC retention time at a higher number? API: response body contains the label of the selected item.
A

====

EXPERIMENTAL_PROTOCOL: collision cross section (TIMS, N2 drift gas) of the primary ion; higher = larger gas-phase ion size
COND: ionization mode: ESI+; ion species: [M+H]+
TEST_READOUT: collision cross section (Å²)

CC(C)c1ccc2sc3ccccc3c(=O)c2c1 [2-Isopropylthioxanthone] = 155.68
CC(=O)Nc1c(C)n(C)n(-c2ccccc2)c1=O [N-Acetyl-4-aminoantipyrine] = 154.74
CCOC(=O)c1ccc(N(C)C)cc1 [Ethyl 4-(dimethylamino)benzoate] = 148.66
COc1nc(C)nc(NC(=O)NS(=O)(=O)c2ccccc2CCC(F)(F)F)n1 [Prosulfuron] = 188.2

====

EXPERIMENTAL_PROTOCOL: collision cross section (TIMS, N2 drift gas) of the primary ion; higher = larger gas-phase ion size
COND: ionization mode: ESI+; ion species: [M+H]+
TEST_READOUT: collision cross section (Å²)

CCNc1nc(Cl)nc(NC(C)C)n1 = 148.84
CN(Cc1cnc2nc(N)nc(N)c2n1)c1ccc(C(=O)N[C@@H](CCC(=O)O)C(=O)O)cc1 [Methotrexate] = 197.21
CCNc1nc(Cl)nc(NCC)n1 = 142.98
CC(C)CCCCCCOC(=O)C1CCCCC1C(=O)OCCCCCCC(C)C (centres undefined) = 228.01
CCCCCCOC(=O)c1ccccc1C(=O)c1ccc(N(CC)CC)cc1O = 209.29
CC12CCC(=O)C=C1CCC1C2CCC2(C)C(C(=O)CO)CCC12 (centres undefined) [21-Hydroxyprogesterone] = 183.52
C[C@]12CCC(=O)C=C1CC[C@@H]1[C@@H]2CC[C@@]2(C)[C@H]1CC[C@]2(C)O = 178.22
CCOC(=O)NCCOc1ccc(Oc2ccccc2)cc1 = 180.55
CCCCc1oc2ccccc2c1C(=O)c1cc(I)c(OCCN(CC)CC)c(I)c1 = 228.68

====

EXPERIMENTAL_PROTOCOL: collision cross section (TIMS, N2 drift gas) of the primary ion; higher = larger gas-phase ion size
COND: ionization mode: ESI-; ion species: [M-H]-
TEST_READOUT: collision cross section (Å²)

Cc1ccc(S(N)(=O)=O)cc1 [p-Toluenesulfonamide] = 134.47
CC(=O)c1cc(C(C)(C)C)c(O)c(C(C)(C)C)c1 [3,5-Di-tert-butyl-4'-hydroxyacetophenone] = 165.11
CC(O)(CS(=O)(=O)c1ccc(F)cc1)C(=O)Nc1ccc(C#N)c(C(F)(F)F)c1 (stereo unspecified) [Bicalutamide] = 184.69
CCN(CC)C(=O)c1cccc(C(=O)O)c1 [DEET carboxylic acid] = 157.09
CCCCC(CC)COP(=O)(O)OCC(CC)CCCC (stereo unspecified) [Bis(2-ethylhexyl)phosphate] = 188.09

[a] O=c1c(O[C@@H]2O[C@H](CO)[C@H](O)[C@H](O)[C@H]2O)c(-c2ccc(O)c(O)c2)oc2cc(O)cc(O)c12 [Hyperin]
[b] CCNc1nc(NCC)[nH]c(=O)n1 [Simazine 2-Hydroxy]
Record comparison, field collision cross section: mark the lower of a and b . API: response body contains the label of the selected item.
b
(b: 140.22 Å², a: 201.31 Å²)

[A] CC1CCc2cc(F)cc3c(=O)c(C(=O)O)cn1c23 (stereo unspecified) [Flumequine]
[B] CCCc1nc2c(C)cc(-c3nc4ccccc4n3C)cc2n1Cc1ccc(-c2ccccc2C(=O)O)cc1 [Telmisartan]
Consider A and B . Which of these has its collision cross section at a higher number? API: response body contains the label of the selected item.
B

[P] Cc1cc(Cc2cc(C)cc(C(C)(C)C)c2O)c(O)c(C(C)(C)C)c1 [2,2'-Methylenebis(6-tert-butyl-p-cresol)]
[Q] Oc1ccnc2ccccc12 [4-Hydroxyquinoline]
Record comparison, field collision cross section: mark the lower of P and Q . API: response body contains the label of the selected item.
Q

This collection of values is drawn from the supplement of paper PMC12613149.
